Origin of the recorded values: ChEMBL document CHEMBL1150421

System: Mus musculus
measurement.description: Analgesic activity in Albino mouse at 50 mg/kg, po assessed as thermal stimuli reaction time change after 2 hrs by hot plate method relative to basal level
Format: functional
Our labelling divides records by Activity into ranges: low = under 20%, middle = from 20% up to 60%, high = 60% and over

Before answering, review these 2 worked examples.
For Cc1ccc(-c2c(S(=O)(=O)c3ccccc3)cnc3cc(-c4ccc(Br)cc4)nn23)cc1 , which Activity bin applies?
middle

For Cc1cc2ncc(S(=O)(=O)c3ccccc3)c(-c3ccc(Br)cc3)n2n1 , which Activity bin applies?
middle

***
For Cc1ccc(-c2c(S(=O)(=O)c3ccccc3)cnc3nc4ccccc4n23)cc1 , which Activity bin applies?
middle

For Cc1ccc(-c2cc3ncc(S(=O)(=O)c4ccccc4)c(-c4ccc(C)cc4)n3n2)cc1 , which Activity bin applies?
middle

For O=S(=O)(c1ccccc1)c1cnc2ncnn2c1-c1ccc(Br)cc1 , which Activity bin applies?
low

For Cc1ccc(-c2c(S(=O)(=O)c3ccccc3)cnc3ncnn23)cc1 , which Activity bin applies?
low

For Cc1ccc(-c2c(S(=O)(=O)c3ccccc3)cnc3cc(C)nn23)cc1 , which Activity bin applies?
low

For O=S(=O)(c1ccccc1)c1cnc2cc(-c3ccc(Cl)cc3)nn2c1-c1ccc(Br)cc1 , which Activity bin applies?
middle

For Cc1ccc(-c2c(S(=O)(=O)c3ccccc3)cnc3c(Br)c(-c4ccccc4)nn23)cc1 , which Activity bin applies?
high

For Cc1ccc(-c2c(S(=O)(=O)c3ccccc3)cnc3cc(-c4ccccc4)nn23)cc1 , which Activity bin applies?
low

For COc1ccc2c(c1)c(CC(=O)O)c(C)n2C(=O)c1ccc(Cl)cc1 , which Activity bin applies?
high
